# Test system: A. baumannii imipenem-resistant
# Assay summary: CLSI broth dilution MIC determination
# Type: cell-based
# Condition: Gram-negative
Readout type: MIC

// MIC value for CC[C@H]1OC(=O)[C@@](C)(F)C(=O)[C@H](C)[C@@H](O[C@@H]2OC(C)CC(N(C)C)C2O)[C@](C)(OC)C[C@@H](C)C(=O)[C@H](C)[C@H]2N(C/C=C/Cn3nnnc3-c3ccccn3)C(=O)O[C@]12C (some centres unmarked) [FSM-100386] : > 32 µg/mL

Lab note: CC[C@H]1OC(=O)[C@H](C)C(=O)[C@H](C)[C@@H](O[C@@H]2OC(C)CC(N(C)C)C2O)[C@](C)(OC)C[C@@H](C)C(=O)[C@H](C)[C@H]2N(C/C=C/Cn3nnc(-c4ccccn4)n3)C(=O)O[C@]12C (some centres unmarked) [FSM-100371] gave MIC of > 32 µg/mL

Record CC[C@H]1OC(=O)[C@@](C)(F)C(=O)[C@H](C)[C@@H](O[C@@H]2OC(C)CC(N(C)C)C2O)[C@](C)(OC)C[C@@H](C)C(=O)[C@H](C)[C@H]2N(C/C=C\Cn3cc(-c4cccc(N)c4)nn3)C(=O)O[C@]12C (some centres unmarked) [FSM-100431] . Reported MIC: 16 µg/mL

Query CC[C@H]1OC(=O)[C@@](C)(F)C(=O)[C@H](C)[C@@H](O[C@@H]2OC(C)CC(N(C)C)C2O)[C@](C)(OC)C[C@@H](C)C(=O)[C@H](C)[C@H]2N(CC#CCn3cc(-c4cccc(N)c4)nn3)C(=O)O[C@]12C (some centres unmarked) [FSM-100426] yields MIC of 8 µg/mL

MIC reported for this molecule CC[C@H]1OC(=O)[C@H](C)[C@@H](O[C@H]2C[C@@](C)(OC)[C@@H](O)[C@H](C)O2)[C@H](C)[C@@H](O[C@@H]2O[C@H](C)C[C@H](N(C)C)[C@H]2O)[C@](C)(O)C[C@@H](C)CN(C)[C@H](C)[C@@H](O)[C@]1(C)O [Azithro, azithromycin, reference compound] : 8 µg/mL
